Biological target: T1, human corticotrophin releasing hormone receptor type 2 (CRHR2) (human, UniProt Q13324 1-411)
T1 sequence (looked up): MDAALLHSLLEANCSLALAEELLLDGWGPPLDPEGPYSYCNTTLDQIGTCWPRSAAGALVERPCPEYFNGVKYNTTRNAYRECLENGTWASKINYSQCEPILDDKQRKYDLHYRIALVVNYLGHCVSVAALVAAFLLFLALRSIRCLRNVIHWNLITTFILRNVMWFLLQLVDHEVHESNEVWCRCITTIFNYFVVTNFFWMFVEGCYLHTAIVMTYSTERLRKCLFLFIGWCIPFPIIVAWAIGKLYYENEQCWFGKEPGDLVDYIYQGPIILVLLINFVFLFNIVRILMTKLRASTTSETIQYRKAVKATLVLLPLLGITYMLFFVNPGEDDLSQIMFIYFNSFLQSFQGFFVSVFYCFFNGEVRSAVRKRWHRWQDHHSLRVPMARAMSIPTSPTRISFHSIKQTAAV
Experiment: cell-based or functional assay
Where no end group is shown, it is not given here.
PROPERTY: pA50

binder="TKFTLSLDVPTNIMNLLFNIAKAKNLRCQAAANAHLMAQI (NES-PEG MW5000 on Cys 28; C-terminal amide (-NH2)) [Pegylated Cys-variant stresscopin-like peptide, NES-PEG MW5000, SEQ ID NO: 96]" property=pA50 recorded_result="8.74 -log10(M)"
binder="TKFTLSLDVPTNIMNLLFNIAKAKNLRAQACANAHLMAQI (NES-PEG (about 20 kDa) on Cys 31; C-terminal amide (-NH2)) [Pegylated Cys-variant stresscopin-like peptide with NES linker and PEG about 20 kDa SEQ ID NO: 85]" property=pA50 recorded_result="8.51 -log10(M)"
binder="TKFTLSLDVPTNIMNLLFNIAKAKNLRAQAACNAHLMAQI (NES-PEG (about 20 kDa) on Cys 32; C-terminal amide (-NH2)) [Pegylated Cys-variant stresscopin-like peptide with NES linker and PEG about 20 kDa SEQ ID NO: 86]" property=pA50 recorded_result="8.79 -log10(M)"
binder="TKFTLSLDVPCNIMNLLFNIAKAKNLRAQAAANAHLMAQI (NES-PEG (about 20 kDa) on Cys 11; C-terminal amide (-NH2)) [Pegylated Cys-variant stresscopin-like peptide with NES linker and PEG about 20 kDa SEQ ID NO: 65]" property=pA50 recorded_result="~6.82 -log10(M)"

Lookup: For TKFTLSLDVPTNIMNLLFNIAKAKNLRACAAANAHLMAQI-NH2 [Cys-variant stresscopin-like peptide SEQ ID NO: 30] , what is its reported pA50?
Found: 8.4 -log10(M)

Lookup: Given the binder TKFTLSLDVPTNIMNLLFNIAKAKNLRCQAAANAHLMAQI (NES-PEG MW80000 & BRANCHED on Cys 28; C-terminal amide (-NH2)) [Pegylated Cys-variant stresscopin-like peptide, NES-PEG MW80000 & BRANCHED, SEQ ID NO: 101] , what is its reported pA50?
Found: 7.84 -log10(M)

Lookup: Which pA50 reading was recorded for the binder TKFTLSLDVPTNIMNLLFNIAKAKNLRAQAAANCHLMAQI-NH2 [Cys-variant stresscopin-like peptide SEQ ID NO: 35] ?
Found: 8.93 -log10(M)

src = patent US20110105397A1
